Each entry below carries its reported IC50.
assayed-target: hP2X3 (Homo sapiens, UniProt P56373)
Construct: expressed in transfected cells; host or cells: e.g. HEK293 or 1321N1
Sequence (P56373 whole entry): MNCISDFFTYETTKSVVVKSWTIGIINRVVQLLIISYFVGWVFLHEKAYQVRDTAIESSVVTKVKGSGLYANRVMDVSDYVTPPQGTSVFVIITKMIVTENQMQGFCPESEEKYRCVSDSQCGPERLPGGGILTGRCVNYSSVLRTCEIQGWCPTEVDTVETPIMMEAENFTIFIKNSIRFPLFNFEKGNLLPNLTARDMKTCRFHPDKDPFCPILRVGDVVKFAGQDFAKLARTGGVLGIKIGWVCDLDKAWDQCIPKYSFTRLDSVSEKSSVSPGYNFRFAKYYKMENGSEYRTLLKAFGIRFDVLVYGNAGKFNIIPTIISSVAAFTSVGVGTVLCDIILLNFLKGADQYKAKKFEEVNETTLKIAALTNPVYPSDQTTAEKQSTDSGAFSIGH
assay-remarks: Calcium uptake assay (P2X antagonist assay), P2X3 homomer
Assay type: cell-based
condition-label: calcium uptake assay, hP2X3; read-out: IC50 hP2X3 (nM), Ca Influx
attribute-measured: IC50

smiles_input=Cc1ccc(-c2cc(C(=O)NCc3ccc(C)nc3)cc(C(=O)N(C)CC(F)(F)F)c2)cc1 assayed_target="hP2X3 (Homo sapiens, UniProt P56373)" result="< 100 nM"
smiles_input=Cc1ccc(-c2cc(C(=O)NCc3ccc(C)nc3)cc(C(=O)N3CC[C@@H](N(C)C)C3)c2)cc1 assayed_target="hP2X3 (Homo sapiens, UniProt P56373)" result="100 to 500 nM"
smiles_input=Cc1ccc(-c2cc(C(=O)N[C@@H](C)CO)cc(C(=O)N(C)CC(C)C)c2)cc1 assayed_target="hP2X3 (Homo sapiens, UniProt P56373)" result="< 100 nM"
smiles_input=Cc1ccc(-c2cc(C(=O)NCc3ccc(C)nc3)cc(C(=O)N3CC[C@H](N(C)C)C3)c2)cc1 assayed_target="hP2X3 (Homo sapiens, UniProt P56373)" result="< 100 nM"
smiles_input=Cc1ccc(-c2cc(C(=O)NCc3ccc(C)nc3)cc(C(=O)N3CC[C@@H](O)C3)c2)cc1 assayed_target="hP2X3 (Homo sapiens, UniProt P56373)" result="< 100 nM"
smiles_input=Cc1ccc(-c2cc(C(=O)NCc3cnc(C)nc3)cc(C(=O)N3CCCCC3)c2)cc1 assayed_target="hP2X3 (Homo sapiens, UniProt P56373)" result="< 100 nM"
smiles_input=COc1ncc([C@@H](C)NC(=O)c2cc(C(=O)N3CCC3)cc(-c3ccc(C)cc3)c2)cn1 assayed_target="hP2X3 (Homo sapiens, UniProt P56373)" result="< 100 nM"
smiles_input=Cc1ccc(-c2cc(C(=O)N[C@H](C)c3ccc(C)nc3)cc(C(=O)N3CCCC3)c2)nc1 assayed_target="hP2X3 (Homo sapiens, UniProt P56373)" result="< 100 nM"
smiles_input=Cc1ccc(-c2cc(S(=O)(=O)N3CCCC3)cc(C(=O)NCc3cnc(C)nc3)c2C)cc1 assayed_target="hP2X3 (Homo sapiens, UniProt P56373)" result="< 100 nM"
smiles_input=Cc1ccc(-c2cc(C(=O)NCc3ccc(C(F)(F)F)c(F)c3)cc(C(=O)N3CC[C@@H](O)C3)c2)nc1 assayed_target="hP2X3 (Homo sapiens, UniProt P56373)" result="< 100 nM"
smiles_input=Cc1ccc(-c2cc(C(=O)N[C@H](C)c3ccc(C(F)(F)F)nc3)cc(C(=O)N3CC(O)C3)c2)cc1 assayed_target="hP2X3 (Homo sapiens, UniProt P56373)" result="< 100 nM"
smiles_input=Cc1ccc(-c2cc(C#N)cc(C(=O)NCc3cnc(C)nc3)c2)nc1 assayed_target="hP2X3 (Homo sapiens, UniProt P56373)" result="> 1000 nM"
smiles_input=Cc1ccc(CNC(=O)c2cc(-c3ccc(Cl)c(Cl)c3)cc(S(C)(=O)=O)c2)cn1 assayed_target="hP2X3 (Homo sapiens, UniProt P56373)" result="> 1000 nM"
smiles_input=Cc1ccc(-c2cc(C(=O)NCc3cnc(C)nc3)cc(S(=O)(=O)CC(C)C)c2)cc1 assayed_target="hP2X3 (Homo sapiens, UniProt P56373)" result="< 100 nM"
smiles_input=Cc1ccc(-c2cc(C(=O)NCc3ccc(C)nc3)cc(C(=O)N3CC[C@@H](N)C3)c2)cc1 assayed_target="hP2X3 (Homo sapiens, UniProt P56373)" result="100 to 500 nM"
smiles_input=Cc1ccc(-c2cc(C(=O)NCc3ccc4cccnc4c3)cc(C(=O)N3CCCC3)c2)cc1 assayed_target="hP2X3 (Homo sapiens, UniProt P56373)" result="100 to 500 nM"
smiles_input=Cc1ccc(-c2cc(C(=O)N[C@H](C)c3ccc(C)nc3)cc(C(=O)N3CC[C@@H](O)C3)c2)nc1 assayed_target="hP2X3 (Homo sapiens, UniProt P56373)" result="< 100 nM"
smiles_input=Cc1ccc(-c2cc(C(=O)N[C@H](C)c3ccc(C(F)(F)F)nc3)cc(S(C)(=O)=O)c2)cc1 assayed_target="hP2X3 (Homo sapiens, UniProt P56373)" result="< 100 nM"
smiles_input=Cc1ccc(CNC(=O)c2cc(-c3ccc(C)c(C)c3)cc(S(C)(=O)=O)c2)cn1 assayed_target="hP2X3 (Homo sapiens, UniProt P56373)" result="> 1000 nM"
smiles_input=CCCS(=O)(=O)c1cc(C(=O)NCc2ccc(C)c(S(C)(=O)=O)c2)cc(-c2ccc(C)cc2)c1 assayed_target="hP2X3 (Homo sapiens, UniProt P56373)" result="< 100 nM"
smiles_input=Cc1ccc(-c2cc(C(=O)NCc3cnc(C)nc3)cc(C(=O)N3CC(F)(F)C3)c2)cc1 assayed_target="hP2X3 (Homo sapiens, UniProt P56373)" result="< 100 nM"
smiles_input=Cc1ccc(-c2cc(C(=O)NCc3cnc(C)nc3)cc(C(=O)N3CC(O)C3)c2)cc1 assayed_target="hP2X3 (Homo sapiens, UniProt P56373)" result="< 100 nM"
smiles_input=Cc1ccc(-c2cc(C(=O)N[C@H](C)c3ccc(C(F)(F)F)nc3)cc(S(C)(=O)=O)c2)nc1 assayed_target="hP2X3 (Homo sapiens, UniProt P56373)" result="< 100 nM"
smiles_input=CCCS(=O)(=O)c1cc(C(=O)NCc2cnc(C)nc2)cc(-c2ccc(C)cc2)c1 assayed_target="hP2X3 (Homo sapiens, UniProt P56373)" result="< 100 nM"
smiles_input=Cc1ccc(-c2cc(C(=O)NCc3ccc(Cl)nc3)cc(C(=O)N3CC(O)C3)c2)cc1 assayed_target="hP2X3 (Homo sapiens, UniProt P56373)" result="< 100 nM"
smiles_input=Cc1ccc(-c2cc(C(=O)NCc3ccc(C(F)(F)F)nc3)cc(C(=O)N3CCCC3)c2)c(C#N)c1 assayed_target="hP2X3 (Homo sapiens, UniProt P56373)" result="< 100 nM"
smiles_input=CCCS(=O)(=O)c1cc(C(=O)NCc2ccc(C)nc2)cc(-c2ccc(C)cc2)c1 assayed_target="hP2X3 (Homo sapiens, UniProt P56373)" result="< 100 nM"
smiles_input=Cc1ccc(-c2cc(C(=O)NCc3ccc(C(F)(F)F)nc3)cc(C(=O)N3CC[C@@H](O)C3)c2)cc1 assayed_target="hP2X3 (Homo sapiens, UniProt P56373)" result="< 100 nM"
smiles_input=COc1ncc([C@@H](C)NC(=O)c2cc(-c3ccc(C)cc3)cc(S(C)(=O)=O)c2)cn1 assayed_target="hP2X3 (Homo sapiens, UniProt P56373)" result="< 100 nM"
smiles_input=Cc1ccc(-c2cc(C(=O)N[C@H](C)c3cnn(C)c3C)cc(C(=O)N3CCCC3)c2)cc1 assayed_target="hP2X3 (Homo sapiens, UniProt P56373)" result="100 to 500 nM"

Provenance of the data: patent US8946439B2
